List of remaining activity at 0.01 µM values.
Target: CDK9 (Homo sapiens (Human), UniProt P50750)
Sequence (P50750 whole entry): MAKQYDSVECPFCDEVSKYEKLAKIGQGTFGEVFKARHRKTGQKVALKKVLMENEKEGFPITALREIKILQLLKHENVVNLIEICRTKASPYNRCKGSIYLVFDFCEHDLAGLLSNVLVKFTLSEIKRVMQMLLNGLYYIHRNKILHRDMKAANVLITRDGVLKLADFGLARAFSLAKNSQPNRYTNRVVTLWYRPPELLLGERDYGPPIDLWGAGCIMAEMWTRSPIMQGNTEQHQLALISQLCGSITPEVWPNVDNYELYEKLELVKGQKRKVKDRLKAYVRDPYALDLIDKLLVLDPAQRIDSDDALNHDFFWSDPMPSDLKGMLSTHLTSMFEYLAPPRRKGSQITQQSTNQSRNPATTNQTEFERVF
Sequence (O60563 whole entry partner): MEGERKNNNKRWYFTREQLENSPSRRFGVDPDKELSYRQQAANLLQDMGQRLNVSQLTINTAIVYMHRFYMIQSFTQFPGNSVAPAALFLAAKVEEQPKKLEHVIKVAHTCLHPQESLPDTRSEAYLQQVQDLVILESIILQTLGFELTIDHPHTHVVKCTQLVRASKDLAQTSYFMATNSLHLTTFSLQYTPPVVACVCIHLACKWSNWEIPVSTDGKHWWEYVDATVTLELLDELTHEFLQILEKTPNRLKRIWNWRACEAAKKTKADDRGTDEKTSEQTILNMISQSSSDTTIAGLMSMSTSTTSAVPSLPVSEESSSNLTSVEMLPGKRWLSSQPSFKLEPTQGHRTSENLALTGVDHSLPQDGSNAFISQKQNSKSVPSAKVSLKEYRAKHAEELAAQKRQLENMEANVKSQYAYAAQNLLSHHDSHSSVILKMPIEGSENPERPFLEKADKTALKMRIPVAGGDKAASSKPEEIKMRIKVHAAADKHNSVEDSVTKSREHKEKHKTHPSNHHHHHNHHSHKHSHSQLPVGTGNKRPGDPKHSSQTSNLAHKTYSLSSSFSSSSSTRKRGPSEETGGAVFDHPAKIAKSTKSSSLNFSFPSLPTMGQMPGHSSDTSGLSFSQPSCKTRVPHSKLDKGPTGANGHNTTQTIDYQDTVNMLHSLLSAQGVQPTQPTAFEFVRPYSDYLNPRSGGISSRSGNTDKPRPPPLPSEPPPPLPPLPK
Test: In vitro kinase inhibition, KinaseProfiler service of Millipore, residual activity
Type: biochemical
Details: residual activity at 10 nM compound; read-out: CDK9 10 nM (RA in %)
endpoint: remaining activity at 0.01 µM

COc1cc(F)ccc1-c1ccnc(NC(=O)[C@@H](C)c2cccnc2)c1 (stereo in doubt)    94%
COc1cc(F)ccc1-c1ccnc(NC(=O)C(C)Cc2ccc(N3CCN(C)CC3)cc2)c1 (centres unmarked)    88%
COc1cc(F)ccc1-c1ccnc(NC(=O)Cc2ccc(N3CCN(C)CC3)cc2)c1    39%
COc1cc(F)ccc1-c1ccnc(NC(=O)C(C)Cc2cccnc2)c1 (centres unmarked)    92%
COc1ccc(F)cc1-c1ccnc(NC(=O)[C@@H](C)c2ccccc2)c1    68%
COc1cc(F)ccc1-c1ccnc(NC(=O)C(C)Cc2ccncc2)c1 (centres unmarked)    93%
COc1cc(F)ccc1-c1ccnc(NC(=O)C2CNC(=O)C2)c1 (centres unmarked)    46%
COc1cc(F)ccc1-c1ccnc(NC(=O)[C@H]2CCC[C@@H](NC(C)=O)C2)c1 (relative stereo)    29%
